System: Plasmodium falciparum
Assay: NOVARTIS: Inhibition of Plasmodium falciparum W2 (drug-resistant) proliferation in erythrocyte-based infection assay
Type: functional, organism-based
Conditions: Plasmodium falciparum, W2; read-out: EC50
assay_readout: EC50 (µM)
Field format: number, assumed µM, no unit text.

Worked cases, EC50 given:
[[record]]
molecule = "c1ccc(C2=NN(c3ccccc3)C(c3ccc4c(c3)OCO4)N2c2ccc(N3CCOCC3)cc2)cc1 (stereo unspecified)"
measured = 1.78

[[record]]
molecule = "CN(C)c1ccc(N=C2NC(=O)/C(=C/c3ccc(Cl)cc3)S2)cc1"
measured = 1.46

[[record]]
molecule = "COc1cc(NC(C)CCCN(Cc2ccccc2OC)C(=O)Nc2cccc(F)c2)c2ncccc2c1 (stereo unspecified)"
measured = 0.84

[[record]]
molecule = "O=C(Cn1nc([N+](=O)[O-])nc1Br)NC1CCCCC1"
measured = 2.66

[[record]]
molecule = "C(=NNc1nc2ccccc2[nH]1)c1ccccc1"
measured = 1.19


Consider the additional molecule presented here.
Suppose we examine the molecule Cc1oc2c(c1C(=O)N1CCC(C)CC1)C(=O)c1ccccc1C2=O ; what EC50 value has been reported? 0.0792

----------
Assay: NOVARTIS: Cytotoxicity against human hepatocellular carcinoma cell line (Huh7)
Assay type: toxicity, cell-based, Huh-7
Settings: Huh7 cells (hepatocellular carcinoma cell line)
Bridge positions count the residues as written; N and C are the ends. Square brackets hold non-standard residues; d marks the D form. Peptide text beside a SMILES is read from it.
assay_readout: CC50

Worked cases, CC50 given:
[[record]]
compound = "CC(C)C[C@@H]1NC(=O)[C@@H](CC(C)C)NC(=O)[C@H](C(C)C)NC(=O)[C@H]2CSSC[C@@H](NC1=O)C(=O)N2 (cyclo(L[dC][dC]V[dL]); disulfide 2-3)"
measured = "> 10 µM"

[[record]]
compound = "Cc1c(C)c(C)c(CNC(=S)NN)c(C)c1C"
measured = "> 100 µM"

[[record]]
compound = "COC(=O)[C@@H]1C[C@@H](NC(=O)c2ccc(OC)cc2OC)CN1CC(c1ccccc1)c1ccccc1"
measured = "> 10 µM"

[[record]]
compound = "CCCCNC(=O)C(CC)Sc1nnc(-c2ccc(C)cc2)c(-c2ccc(C)cc2)n1 (stereo not given)"
measured = "> 100 µM"


Consider the additional compound presented here.
Suppose we examine the compound O=C(CS(=O)(=O)c1ccc(C(F)(F)F)cn1)NNS(=O)(=O)c1ccc(Cl)cc1 ; what CC50 value has been reported? > 10 µM

----------
Tested on: Plasmodium falciparum
Test: NOVARTIS: Inhibition of Plasmodium falciparum 3D7 (drug-susceptible) proliferation in erythrocyte-based infection assay
Type: functional, organism-based
Details: Plasmodium falciparum, 3D7
assay_readout: log10 of EC50 (log10 of the value in µM)
The common logarithm of EC50 in µM is what is listed.

Worked cases, log10 of EC50 given:
[[record]]
compound = "O=C(Nc1ccc(SC(F)(F)F)cc1)Nc1cccnc1N1CCC(C(F)(F)F)CC1"
experimental_target = "Plasmodium falciparum"
measured = 0.25

[[record]]
compound = "COC(=O)c1c(S(=O)(=O)NCCN(C)C)sc2c1CCN(CC(C)c1ccccc1)C2 (centres undefined)"
experimental_target = "Plasmodium falciparum"
measured = 0.21

[[record]]
compound = "CCOC(=O)c1cc(-c2ccc(C)cc2)n(CCC(=O)Nc2cccc(C(F)(F)F)c2)c1C"
experimental_target = "Plasmodium falciparum"
measured = -0.08

[[record]]
compound = "CCCCCSc1scc(-c2ccc(O)c(O)c2)[n+]1C"
experimental_target = "Plasmodium falciparum"
measured = -0.60

[[record]]
compound = "COC(=O)C1=C(C)NC(=Cc2cc(C)n(-c3ccccc3F)c2C)C1=O"
experimental_target = "Plasmodium falciparum"
measured = -1.70


Consider the additional compound presented here.
Suppose we examine the compound CCOc1cccc2c1N(C(=O)c1ccc(C)cc1)C(C)(C)C1=C2C2(SC(C(=O)OC)=C(C(=O)OC)S2)C(C(=O)OC)=C(C(=O)OC)S1 ; what log10 of EC50 value has been reported? 0.03

----------
Test: NOVARTIS: Cytotoxicity against human hepatocellular carcinoma cell line (Huh7)
Assay type: toxicity, cell-based, Huh-7
Conditions: Huh7 cells (hepatocellular carcinoma cell line)
assay_readout: CC50

Worked cases, CC50 given:
[[record]]
compound = "CCCCOc1cccc(C(=O)N(Cc2cccs2)c2ccc(OC)cc2)c1"
measured = "6.13 µM"

[[record]]
compound = "Cc1ccccc1-c1cccc(CN2CCCCC2CCn2cc(C(=O)NC3CC3)nn2)c1 (stereo unspecified)"
measured = "> 100 µM"

[[record]]
compound = "CCOC(=O)c1ccc(N2CCN(c3cc(C)ccc3C)CC2)c(NC(=O)Nc2ccc(Cl)cc2)c1"
measured = "> 100 µM"

[[record]]
compound = "COc1cc(NC(C)CCCN(Cc2ccccc2OC)C(=O)Nc2ccccc2OC)c2ncccc2c1 (stereo unspecified)"
measured = "> 10 µM"

[[record]]
compound = "CCN1CCN(CCN2C(=O)C3C(C(=O)Nc4ccc(C(C)C)cc4)C4C=CC3(O4)C2C(=O)NC2CCCCC2)CC1 (stereo unspecified)"
measured = "> 100 µM"


Suppose we examine the compound COC(=O)C1=C(OC)C(=O)OC12C=CC(=O)C=C2 ; what CC50 value has been reported? 2.52 µM

----------
Test system: Plasmodium falciparum
Test: NOVARTIS: Inhibition of Plasmodium falciparum W2 (drug-resistant) proliferation in erythrocyte-based infection assay
Assay type: functional, organism-based
Conditions: Plasmodium falciparum, W2; read-out: EC50
pEC50: −log10 of the molar value.
Where pEC50 equals or exceeds 6, the correct label is fulfilled; where it does not, the label is not fulfilled.

[[record]]
molecule = "O=C(NCCCNC(=O)Nc1cccc(C2=NCCN2)c1)Nc1cccc(C2=NCCN2)c1"
discrete_label = "fulfilled"

[[record]]
molecule = "Oc1nnc(SCc2nc3ccccc3s2)n1Cc1ccco1"
discrete_label = "fulfilled"


Textbook exercise: given the entry CNc1nc(NN=Cc2cc([N+](=O)[O-])ccc2O)nc(Nc2cccc(C(F)(F)F)c2)n1 , state whether its pEC50 is greater than or equal to 6. not fulfilled

Textbook exercise: given the entry CCOc1ccc(NC(=O)CSc2nncc(O)n2)cc1 , state whether its pEC50 is greater than or equal to 6. fulfilled

Textbook exercise: given the entry COC(=O)C1=C(C)NC2=C(C(=O)c3ccccc32)C1c1ccc(OCC#N)c(OC)c1 (stereo not given) , state whether its pEC50 is greater than or equal to 6. not fulfilled

Textbook exercise: given the entry CN(CCCNc1ccnc2cc(Cl)ccc12)C(=O)COc1ccc(Cl)cc1 , state whether its pEC50 is greater than or equal to 6. fulfilled

Textbook exercise: given the entry Cc1ccn2c(NC(C)(C)CC(C)(C)C)c(-c3ccccc3OC(=O)CC(C)C)nc2c1 , state whether its pEC50 is greater than or equal to 6. fulfilled

Textbook exercise: given the entry COc1cc(NC(C)CCCN(Cc2ccc(OC)c(OC)c2)C(=O)NC2CCCCC2)c2ncccc2c1 (stereo not given) , state whether its pEC50 is greater than or equal to 6. fulfilled

Textbook exercise: given the entry COc1ccc(-c2nc(CN3CCCCC3)ccc2O)cc1 , state whether its pEC50 is greater than or equal to 6. fulfilled

----------
Listed below: CC50 values for each entry.
Assay: NOVARTIS: Cytotoxicity against human hepatocellular carcinoma cell line (Huh7)
Type: toxicity, cell-based, Huh-7
Conditions: Huh7 cells (hepatocellular carcinoma cell line)

Worked cases, CC50 given:
[[record]]
molecule = "O=C(Nc1ccc(C(c2ccccc2)(c2ccccc2)c2ccc(NC(=O)c3cccc([N+](=O)[O-])c3)cc2)cc1)c1cccc([N+](=O)[O-])c1"
assay_readout = "CC50"
measured = "> 10 µM"

[[record]]
molecule = "CCCCNC(=O)N(CCCC(C)Nc1cc(OC)cc2cccnc12)Cc1ccc(OC)c(OC)c1 (stereo not given)"
assay_readout = "CC50"
measured = "> 4.47 µM"

[[record]]
molecule = "Oc1cccc2ccc[n+](CC(O)Cn3c4ccccc4c4ccccc43)c12 (stereo not given)"
assay_readout = "CC50"
measured = "49.2 µM"

[[record]]
molecule = "CC[n+]1c(/C=C/C=C2\\N(C)c3ccccc3C2(C)C)n(-c2ccccc2)c2ccc(Cl)cc21"
assay_readout = "CC50"
measured = "> 10 µM"

[[record]]
molecule = "O=C(NCCc1ccccc1)c1cnc(NCCCn2ccnc2)nc1NCC1CCCCC1"
assay_readout = "CC50"
measured = "> 10 µM"


Suppose we examine the molecule c1cc(NCc2ccc3c(c2)OCO3)n2ncc(-c3ccoc3)c2n1 ; what CC50 value has been reported? > 10 µM

Suppose we examine the molecule COc1ccc(CNCCN2CCN(c3ccc(C)cc3)C[C@@H]2c2ccccc2)cc1 ; what CC50 value has been reported? > 10 µM

Suppose we examine the molecule O=C(Nc1ccc(F)c(Cl)c1)c1c2c(nc3ccccc13)CCN(Cc1ccccc1)C2 ; what CC50 value has been reported? > 100 µM

Suppose we examine the molecule COc1ccccc1NC1=CC(=NS(=O)(=O)c2ccccc2)c2ccccc2C1=O ; what CC50 value has been reported? 13.6 µM

Suppose we examine the molecule Cc1cccc(C(=O)NCc2nnc(S)n2-c2cccc(C(F)(F)F)c2)c1 ; what CC50 value has been reported? > 100 µM
